# credit: the supplement of paper PMC10065799

test system: AncSZ; test: phosphorylation enrichment, bacterial display (enrichment ratio); higher = better substrate or ligand; peptides without Tyr show the background;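 also: 11-residue human phosphosite peptides and single-mutation variants displayed on the E. coli surface, counted by deep sequencing, each peptide's frequency after selection divided by its frequency in the unselected input library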;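 also: frequency after pTyr selection over input frequency; kinase dosed for 20-30% of maximal phosphorylation in three min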
# cutoff 1 applies to phosphorylation enrichment; >= gives criterion met, < gives criterion not met

>  <query-sequence>
IIWDSYTTNKM [GNB4_Y85]

>  <tested-on>
AncSZ

>  <class>
criterion met

$$$$

**Q:** Reported phosphorylation enrichment reaches at least 1 for KPNMNYDKLSQ [FLI1_Y332_R337Q] ?
**A:** criterion not met

**Q:** Reported phosphorylation enrichment reaches at least 1 for REVPVYISEDS [SYNM_Y460_G462S] ?
**A:** criterion met

**Q:** Reported phosphorylation enrichment reaches at least 1 for KIDAKYKKKIK [WDR19_Y1230_E1235K] ?
**A:** criterion not met

---

For each record, write down the corresponding phosphorylation enrichment.
target: MERTK (UniProt Q12866); assay: phosphorylation enrichment, bacterial display (enrichment ratio); higher = better substrate or ligand; peptides without Tyr show the background
Sequence (Q12866 whole entry, looked up): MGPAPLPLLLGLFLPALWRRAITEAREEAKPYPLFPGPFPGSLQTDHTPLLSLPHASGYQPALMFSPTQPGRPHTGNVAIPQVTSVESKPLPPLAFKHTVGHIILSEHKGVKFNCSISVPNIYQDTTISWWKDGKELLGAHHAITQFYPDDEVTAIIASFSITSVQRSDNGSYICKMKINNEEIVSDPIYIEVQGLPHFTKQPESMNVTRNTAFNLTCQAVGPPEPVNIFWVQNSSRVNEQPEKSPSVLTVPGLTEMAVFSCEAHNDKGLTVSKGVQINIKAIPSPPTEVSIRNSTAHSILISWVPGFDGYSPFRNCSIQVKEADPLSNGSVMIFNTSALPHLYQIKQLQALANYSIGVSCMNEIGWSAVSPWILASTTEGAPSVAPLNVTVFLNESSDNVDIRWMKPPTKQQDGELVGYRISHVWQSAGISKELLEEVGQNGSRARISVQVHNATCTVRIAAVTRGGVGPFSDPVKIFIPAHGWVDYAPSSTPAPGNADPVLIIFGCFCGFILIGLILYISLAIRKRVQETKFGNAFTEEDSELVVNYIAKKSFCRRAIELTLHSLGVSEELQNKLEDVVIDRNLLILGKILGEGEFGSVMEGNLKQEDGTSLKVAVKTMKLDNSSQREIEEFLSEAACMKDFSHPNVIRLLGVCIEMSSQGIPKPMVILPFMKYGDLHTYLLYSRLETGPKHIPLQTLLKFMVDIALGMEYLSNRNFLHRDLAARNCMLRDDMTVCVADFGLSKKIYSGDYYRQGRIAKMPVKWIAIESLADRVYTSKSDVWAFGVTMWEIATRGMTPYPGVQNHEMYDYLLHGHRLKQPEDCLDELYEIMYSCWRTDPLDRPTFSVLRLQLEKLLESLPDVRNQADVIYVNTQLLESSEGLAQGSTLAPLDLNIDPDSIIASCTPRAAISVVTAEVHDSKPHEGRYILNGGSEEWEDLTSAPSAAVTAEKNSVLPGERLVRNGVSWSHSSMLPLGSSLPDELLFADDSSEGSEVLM
One number for each entry.

>  <query-sequence>
YGCGMYSHLQG [LGR4_Y848_D844G]

>  <tested-on>
MERTK (UniProt Q12866)

>  <phosphorylation enrichment>
5.25

$$$$

Provide reported phosphorylation enrichment for each item, in the same order as listed.
1. LDAFIYDAALL [GRIN2A_Y730_V734L]
2. IGEVVYQWAVM [GRIN2A_Y502_R504W]
3. ASTDYYKRGDF [PDHA1_Y243]
4. TKLKDYFIFNK [CCDC42_Y149_A144T_YF]

**A:**
1. 2.28
2. 0.904
3. 0.369
4. 0.401

Provide reported phosphorylation enrichment for each item, in the same order as listed.
1. IGMSSYVMLAS [GGCX_Y301_F299S]
2. KIIATYRLCSE [DNAH3_Y1586_V1583I]
3. KVALLYKPFFF [POLE_Y100_P99L_YF]
4. GGQVFYNSEYG [FLT4_Y1333]
5. QLDQHYLLVPE [DDX49_Y223_R222H]
6. PTTKSYFPHFD [HBA1_Y43_T42S]
7. GGGGSYNVFGN [HNRNPA1_Y312_D314V]
8. SGPRRYTVAAL [TTR_Y125_I127V]

**A:**
[0.878, 0.354, 0.772, 0.467, 0.825, 0.664, 0.457, 0.395]

---

molecular target: Fes (UniProt P07332); assay: phosphorylation enrichment, bacterial display (enrichment ratio); higher = better substrate or ligand; peptides without Tyr show the background
Sequence (P07332 whole entry, looked up): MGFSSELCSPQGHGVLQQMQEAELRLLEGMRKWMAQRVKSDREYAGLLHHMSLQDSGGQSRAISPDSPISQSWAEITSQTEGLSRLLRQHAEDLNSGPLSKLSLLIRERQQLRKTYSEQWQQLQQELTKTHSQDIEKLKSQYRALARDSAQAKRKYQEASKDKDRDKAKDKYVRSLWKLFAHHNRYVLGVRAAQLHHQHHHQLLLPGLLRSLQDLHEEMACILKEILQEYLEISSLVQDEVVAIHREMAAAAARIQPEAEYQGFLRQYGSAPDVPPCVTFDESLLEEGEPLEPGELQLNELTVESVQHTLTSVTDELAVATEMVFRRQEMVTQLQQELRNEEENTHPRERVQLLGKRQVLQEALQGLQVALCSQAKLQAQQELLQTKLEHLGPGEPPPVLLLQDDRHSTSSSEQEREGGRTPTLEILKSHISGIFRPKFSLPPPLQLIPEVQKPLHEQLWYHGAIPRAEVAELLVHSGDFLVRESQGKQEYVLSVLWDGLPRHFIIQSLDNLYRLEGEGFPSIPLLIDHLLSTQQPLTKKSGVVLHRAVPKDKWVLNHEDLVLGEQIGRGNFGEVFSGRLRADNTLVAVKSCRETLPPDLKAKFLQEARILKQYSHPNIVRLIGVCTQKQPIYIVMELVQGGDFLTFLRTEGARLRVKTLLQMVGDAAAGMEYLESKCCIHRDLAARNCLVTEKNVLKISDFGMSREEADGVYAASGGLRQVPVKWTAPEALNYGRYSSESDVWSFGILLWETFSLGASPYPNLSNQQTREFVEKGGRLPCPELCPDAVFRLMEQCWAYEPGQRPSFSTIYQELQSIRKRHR
For each record, write down the corresponding phosphorylation enrichment.
One number for each entry.

Study these solved cases before continuing.
>  <query-sequence>
YRQNVYIPGSN [PCDHGA1_Y895]

>  <phosphorylation enrichment>
0.626

$$$$
>  <query-sequence>
LAETSYVKVLE [MAGEA1_Y276]

>  <phosphorylation enrichment>
1.03

$$$$
>  <query-sequence>
SSLEDYVRETN [GIMAP6_Y176_G171S]

>  <phosphorylation enrichment>
1.06

$$$$
>  <query-sequence>
EQLRAYLEGLC [HLA-C_Y183_T187L]

>  <phosphorylation enrichment>
1.58

$$$$
>  <query-sequence>
THPFPYLSLEI [MLH1_Y293_L292P]

>  <phosphorylation enrichment>
0.978

$$$$

Provide reported phosphorylation enrichment for each item, in the same order as listed.
1. RTLIRYAKLGN [BEST1_Y131_N133K]
2. SDVCMYRKNTF [SYNE2_Y570_I574T_YF]
3. KRLFAYKMLMA [TMC2_Y209_Q205R_YF]
4. AALKLYHVSDS [VIL1_Y256]
5. IYRAAYFGVYD [SLC25A4_Y191]

**A:**
1.27
0.904
0.867
0.766
1.21

---

target: Fyn (UniProt P06241); experiment: phosphorylation enrichment, bacterial display (enrichment ratio); higher = better substrate or ligand; peptides without Tyr show the background
Sequence (P06241 whole entry, looked up): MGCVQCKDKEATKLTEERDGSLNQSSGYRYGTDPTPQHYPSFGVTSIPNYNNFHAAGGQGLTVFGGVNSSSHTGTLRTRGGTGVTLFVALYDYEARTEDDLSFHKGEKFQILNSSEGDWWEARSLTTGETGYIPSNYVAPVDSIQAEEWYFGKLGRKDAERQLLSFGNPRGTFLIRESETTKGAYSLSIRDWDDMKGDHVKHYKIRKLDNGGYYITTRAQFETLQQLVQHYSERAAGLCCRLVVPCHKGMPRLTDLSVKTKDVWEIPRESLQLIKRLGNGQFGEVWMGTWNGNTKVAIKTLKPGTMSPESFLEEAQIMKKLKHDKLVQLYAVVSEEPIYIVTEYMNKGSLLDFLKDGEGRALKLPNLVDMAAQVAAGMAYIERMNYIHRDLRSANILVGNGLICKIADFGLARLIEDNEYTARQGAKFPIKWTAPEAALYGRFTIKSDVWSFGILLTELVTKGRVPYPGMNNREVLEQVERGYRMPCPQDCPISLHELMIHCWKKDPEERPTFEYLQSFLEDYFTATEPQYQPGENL
# cutoff 0.5 applies to phosphorylation enrichment; >= gives Met, < gives Not met

// known answers, use as guide
>  <query-sequence>
TDIVAYSGWVQ [SPTBN2_Y477_R480W]

>  <class>
Met

$$$$
>  <query-sequence>
DRLASDLDKVR [KRT10_Y160_Y160D]

>  <class>
Not met

$$$$
>  <query-sequence>
GCKKRYDKDKP [THAP1_Y14_N12K]

>  <class>
Not met

$$$$
>  <query-sequence>
FLAATYPTVGQ [NF1_Y2508_YF]

>  <class>
Not met

$$$$
>  <query-sequence>
FSSLGYPLPEG [ZSWIM4_Y87_P89L_YF]

>  <class>
Not met

$$$$
>  <query-sequence>
GPIFRYDSGGA [CYP11B1_Y81_L83S]

>  <class>
Not met

$$$$

**Q:** Reported phosphorylation enrichment reaches at least 0.5 for CTIIHYNFMCN [TP53_Y234_T231I_YF] ?
**A:** Not met

**Q:** Reported phosphorylation enrichment reaches at least 0.5 for RQQQDYWLKDV [ANPEP_Y600_I603K] ?
**A:** Not met

**Q:** Reported phosphorylation enrichment reaches at least 0.5 for TQPSPYAVYLF [RPGRIP1_Y823_R827L] ?
**A:** Met

**Q:** Reported phosphorylation enrichment reaches at least 0.5 for ETKKQYDSFTY [TMED3_Y85] ?
**A:** Met

**Q:** Reported phosphorylation enrichment reaches at least 0.5 for YNDSTYNQQLI [ZPLD1_Y198] ?
**A:** Not met

**Q:** Reported phosphorylation enrichment reaches at least 0.5 for DRLASYLDKVP [KRT14_Y129_R134P] ?
**A:** Not met

---

test system: AncSZ; assay: phosphorylation enrichment, bacterial display (enrichment ratio); higher = better substrate or ligand; peptides without Tyr show the background
Categories are defined by ranges of phosphorylation enrichment, namely lower band = under 0.7, central band = from 0.7 up to 0.9, upper band = 0.9 and over

// known answers, use as guide
>  <query-sequence>
SSPMKYQQNVS [EGFEM1P_Y160]

>  <tested-on>
AncSZ

>  <class>
lower band

$$$$
>  <query-sequence>
PSQRCYVYYYS [PTEN_Y174_R173C]

>  <tested-on>
AncSZ

>  <class>
upper band

$$$$
>  <query-sequence>
FAAAGYGSLEA [EPHA10_Y959]

>  <tested-on>
AncSZ

>  <class>
central band

$$$$
>  <query-sequence>
REIIAYQPFGK [PRKCG_Y529_P524R_YF]

>  <tested-on>
AncSZ

>  <class>
lower band

$$$$

Next item in the queue.
**Q:** Tag the class for VERRVYAEDPY [PCCA_Y401_C398R]
**A:** central band

---

For each record, write down the corresponding phosphorylation enrichment.
test system: c-Src; experiment: phosphorylation enrichment, bacterial display (enrichment ratio); higher = better substrate or ligand; peptides without Tyr show the background
Give bare numbers.

Study these solved cases before continuing.
>  <query-sequence>
LHRHAYPEQQQ [DPPA2_Y127_R131Q]

>  <observed-measurement>
0.559

$$$$
>  <query-sequence>
SNNFIYKTLGV [FAM83B_Y639_YF]

>  <observed-measurement>
0.478

$$$$
>  <query-sequence>
MFNPCYGLFEY [NEDD4L_Y680_Y679C]

>  <observed-measurement>
5.01

$$$$

Provide reported phosphorylation enrichment for each item, in the same order as listed.
1. FAAAGYGSLEA [EPHA10_Y959]
2. FLTQHYDAIPQ [ANG_Y38_K41I]

**A:**
1.14
0.678

Provide reported phosphorylation enrichment for each item, in the same order as listed.
1. KMKGDYFRFLA [YWHAG_Y130_YF]
2. LQTYRYHGLSM [PDHA1_Y289_H292L]
3. WRVIGYHVVVW [ATP13A2_Y50]
4. KIIATYRLCSE [DNAH3_Y1586_V1583I]
5. TENAGYYFRVS
6. IVKAFYVRARA [AIPL1_Y268_YF]

**A:**
[2.11, 0.471, 0.501, 0.421, 0.421, 0.396]

---

molecular target: Hck (UniProt P08631); assay: phosphorylation enrichment, bacterial display (enrichment ratio); higher = better substrate or ligand; peptides without Tyr show the background
Sequence (P08631 whole entry, looked up): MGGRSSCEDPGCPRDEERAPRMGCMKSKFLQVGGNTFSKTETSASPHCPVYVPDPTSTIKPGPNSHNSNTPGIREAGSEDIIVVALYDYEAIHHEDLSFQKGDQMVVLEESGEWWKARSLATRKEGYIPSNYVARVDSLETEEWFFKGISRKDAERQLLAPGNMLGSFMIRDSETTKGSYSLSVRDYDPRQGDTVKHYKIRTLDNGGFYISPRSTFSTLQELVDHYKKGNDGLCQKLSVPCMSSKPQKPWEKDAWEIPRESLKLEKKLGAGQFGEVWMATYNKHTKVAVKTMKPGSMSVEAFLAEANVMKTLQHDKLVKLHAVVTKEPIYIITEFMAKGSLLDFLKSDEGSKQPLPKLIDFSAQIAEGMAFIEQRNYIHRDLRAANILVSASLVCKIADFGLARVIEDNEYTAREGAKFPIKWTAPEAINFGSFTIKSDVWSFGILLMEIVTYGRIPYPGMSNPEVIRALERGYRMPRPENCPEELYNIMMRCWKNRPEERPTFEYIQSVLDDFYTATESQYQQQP
assay-readout: phosphorylation enrichment
Give bare numbers.

Study these solved cases before continuing.
>  <query-sequence>
PSPTRYSLSPS [RANBP2_Y785]

>  <observed-measurement>
0.515

$$$$
>  <query-sequence>
GVIRHYVVCST [BTK_Y334]

>  <observed-measurement>
0.536

$$$$
>  <query-sequence>
FFRNVYHLASV [RBL1_Y796_K794N_YF]

>  <observed-measurement>
0.596

$$$$
>  <query-sequence>
SGETKYNPTEA [NBEAL2_Y2748_E2747K]

>  <observed-measurement>
0.613

$$$$
>  <query-sequence>
PYTDPYYDYEI [ZC3H18_Y371_A368T]

>  <observed-measurement>
2.43

$$$$

Provide reported phosphorylation enrichment for each item, in the same order as listed.
1. TDKLFYIYTPG [SLC27A4_Y243_S247P]
2. FKDGQYWIRGR [ACSF3_Y466]
3. CPYNLYAAQLS [HGD_Y40_E42A]
4. SSTAMYSAPGR [PSMB1_Y8]

**A:**
1. 0.498
2. 0.614
3. 3.08
4. 2.28

Provide reported phosphorylation enrichment for each item, in the same order as listed.
1. CTTNHYNFMCN [TP53_Y234_I232N_YF]
2. DGQVNYEEFVQ [CALM1_Y139]
3. ASTDYYKRGDF [PDHA1_Y243]

**A:**
1: 0.424; 2: 0.626; 3: 0.465

Provide reported phosphorylation enrichment for each item, in the same order as listed.
1. HILQLYRCREE [ALPK3_Y342_T338I]
2. TGTQLYGRFGS [ITGA2B_Y384]

**A:**
1. 0.553
2. 7.54
